molecular target: Sialic acid-binding Ig-like lectin 9 (Homo sapiens) (UniProt Q9Y336); test: Hs-Siglec9 ALPHAscreen SOP 20170721; parameters: scale not given: direction of the effect not stated beside the values; conditions: 10 µM
Sequence (Q9Y336 whole entry): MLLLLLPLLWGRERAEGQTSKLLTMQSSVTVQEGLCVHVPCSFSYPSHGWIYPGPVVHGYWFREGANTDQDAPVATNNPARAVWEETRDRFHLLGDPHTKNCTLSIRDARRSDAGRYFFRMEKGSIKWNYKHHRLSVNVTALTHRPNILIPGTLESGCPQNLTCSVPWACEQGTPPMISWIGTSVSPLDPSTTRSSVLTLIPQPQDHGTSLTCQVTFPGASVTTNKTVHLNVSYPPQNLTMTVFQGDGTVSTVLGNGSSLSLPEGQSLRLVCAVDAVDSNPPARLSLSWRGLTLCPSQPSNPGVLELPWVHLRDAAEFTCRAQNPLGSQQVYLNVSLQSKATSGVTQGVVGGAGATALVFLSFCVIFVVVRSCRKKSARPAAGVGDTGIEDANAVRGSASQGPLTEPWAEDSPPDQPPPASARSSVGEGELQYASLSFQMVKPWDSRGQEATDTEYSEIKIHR
experimentalReadout: Percent Effect (%)

[[record]]
compound = "CC(=O)Nc1nc(CN2CCCC2Cn2cncn2)cs1 (stereo not drawn)"
targetentity = "Sialic acid-binding Ig-like lectin 9 (Homo sapiens) (UniProt Q9Y336)"
observedmeasurement = 16.5

[[record]]
compound = "CCCC(=O)N1CC[C@@H]2[C@H](CC1)N(Cc1cccnc1)CCS2(=O)=O"
targetentity = "Sialic acid-binding Ig-like lectin 9 (Homo sapiens) (UniProt Q9Y336)"
observedmeasurement = -1.04

[[record]]
compound = "CCS(=O)(=O)N1CCC2(CC1)CC(Oc1ccccn1)CO2 (stereo not drawn)"
targetentity = "Sialic acid-binding Ig-like lectin 9 (Homo sapiens) (UniProt Q9Y336)"
observedmeasurement = -1.15

[[record]]
compound = "CCn1cc2c(n1)C(COC)CN(Cc1ccccn1)C2 (stereo not drawn)"
targetentity = "Sialic acid-binding Ig-like lectin 9 (Homo sapiens) (UniProt Q9Y336)"
observedmeasurement = -6.05

[[record]]
compound = "CN(C(=O)c1ccccn1)c1nc2c(s1)CCc1c-2cnn1C"
targetentity = "Sialic acid-binding Ig-like lectin 9 (Homo sapiens) (UniProt Q9Y336)"
observedmeasurement = -2.4

[[record]]
compound = "Cc1ncsc1C(=O)NCc1cccs1"
targetentity = "Sialic acid-binding Ig-like lectin 9 (Homo sapiens) (UniProt Q9Y336)"
observedmeasurement = 5.83

[[record]]
compound = "Cc1ccn(-c2ccccc2NCc2ccccn2)n1"
targetentity = "Sialic acid-binding Ig-like lectin 9 (Homo sapiens) (UniProt Q9Y336)"
observedmeasurement = 4.37

[[record]]
compound = "COc1ccc(NC(=O)c2ccc(-n3ncc(C#N)c3N)cc2)cn1"
targetentity = "Sialic acid-binding Ig-like lectin 9 (Homo sapiens) (UniProt Q9Y336)"
observedmeasurement = 15.3

[[record]]
compound = "N#Cc1ncn(CCC(=O)Nc2ccc(Cl)cc2F)n1"
targetentity = "Sialic acid-binding Ig-like lectin 9 (Homo sapiens) (UniProt Q9Y336)"
observedmeasurement = 4.01

[[record]]
compound = "CN(C)CCO[C@@H]1CC[C@H]2[C@H]1OCCN2C(=O)CCc1ccccc1"
targetentity = "Sialic acid-binding Ig-like lectin 9 (Homo sapiens) (UniProt Q9Y336)"
observedmeasurement = -1.11

[[record]]
compound = "CC(C)(C)n1ncc2c1NC(=O)CC2c1ccccc1 (stereo not drawn)"
targetentity = "Sialic acid-binding Ig-like lectin 9 (Homo sapiens) (UniProt Q9Y336)"
observedmeasurement = 5.59

[[record]]
compound = "Nc1nc(C2CCN(C(=O)c3cncs3)CC2)cs1"
targetentity = "Sialic acid-binding Ig-like lectin 9 (Homo sapiens) (UniProt Q9Y336)"
observedmeasurement = 5.35

[[record]]
compound = "CS(=O)(=O)N1CCC2(CC1)CC(CC(=O)NC1CC1)c1ccccc12 (stereo not drawn)"
targetentity = "Sialic acid-binding Ig-like lectin 9 (Homo sapiens) (UniProt Q9Y336)"
observedmeasurement = 1.58

[[record]]
compound = "COc1cc(C(C)=O)ccc1OCC(=O)N(C)Cc1cnn(C)c1"
targetentity = "Sialic acid-binding Ig-like lectin 9 (Homo sapiens) (UniProt Q9Y336)"
observedmeasurement = 7.64

[[record]]
compound = "CCC(CC)C(CNC(=O)Nc1cc(C)nn1C)N1CCOCC1 (stereo not drawn)"
targetentity = "Sialic acid-binding Ig-like lectin 9 (Homo sapiens) (UniProt Q9Y336)"
observedmeasurement = -7.11

[[record]]
compound = "Cc1ccc([C@@H]2CN(C(=O)c3cccnn3)C[C@H]2NC(=O)C2CC2)cc1"
targetentity = "Sialic acid-binding Ig-like lectin 9 (Homo sapiens) (UniProt Q9Y336)"
observedmeasurement = 16.9

[[record]]
compound = "CC(C)Cc1noc(CN2CCOCC2)n1"
targetentity = "Sialic acid-binding Ig-like lectin 9 (Homo sapiens) (UniProt Q9Y336)"
observedmeasurement = 2.11

[[record]]
compound = "Cc1ccc(C(=O)NC(C)CN2CCCC2=O)c(=O)[nH]1 (stereo not drawn)"
targetentity = "Sialic acid-binding Ig-like lectin 9 (Homo sapiens) (UniProt Q9Y336)"
observedmeasurement = 0.134

[[record]]
compound = "Cc1nccn1-c1cc(CNC(=O)c2ccccn2)ccn1"
targetentity = "Sialic acid-binding Ig-like lectin 9 (Homo sapiens) (UniProt Q9Y336)"
observedmeasurement = 6.49

[[record]]
compound = "O=C1CC[C@H]2[C@H](CCN2C(=O)C2CCCO2)N1Cc1ccncc1 (stereo partly drawn)"
targetentity = "Sialic acid-binding Ig-like lectin 9 (Homo sapiens) (UniProt Q9Y336)"
observedmeasurement = -5.26

[[record]]
compound = "COCCN1CC[C@@H]2O[C@@H](COCC(=O)N3CCCC3)CC[C@@H]21"
targetentity = "Sialic acid-binding Ig-like lectin 9 (Homo sapiens) (UniProt Q9Y336)"
observedmeasurement = 2.85

[[record]]
compound = "CCN1CCC(NC(=O)CN2CCCC2Cn2cncn2)CC1 (stereo not drawn)"
targetentity = "Sialic acid-binding Ig-like lectin 9 (Homo sapiens) (UniProt Q9Y336)"
observedmeasurement = -1.21

[[record]]
compound = "Cc1ccc(N(C)C2CCN(C(=O)c3ccsc3)CC2)nn1"
targetentity = "Sialic acid-binding Ig-like lectin 9 (Homo sapiens) (UniProt Q9Y336)"
observedmeasurement = 11.4

[[record]]
compound = "COc1ncccc1NC(=O)c1cccc(C)n1"
targetentity = "Sialic acid-binding Ig-like lectin 9 (Homo sapiens) (UniProt Q9Y336)"
observedmeasurement = -4.18

[[record]]
compound = "O=C(NCCNc1ccc(C(F)(F)F)cn1)c1ccc(Br)cc1F"
targetentity = "Sialic acid-binding Ig-like lectin 9 (Homo sapiens) (UniProt Q9Y336)"
observedmeasurement = -16.8

[[record]]
compound = "CCC(NC(=O)CC(F)(F)F)c1ccccc1OCC(=O)N1CCCC1 (stereo not drawn)"
targetentity = "Sialic acid-binding Ig-like lectin 9 (Homo sapiens) (UniProt Q9Y336)"
observedmeasurement = -4.51

[[record]]
compound = "c1coc(-c2nnc(CN3CCCC(CN4CCCCCC4)C3)o2)c1 (stereo not drawn)"
targetentity = "Sialic acid-binding Ig-like lectin 9 (Homo sapiens) (UniProt Q9Y336)"
observedmeasurement = 1.71

[[record]]
compound = "CCn1ccnc1CN1CCN(CC(O)Cn2cccn2)CC1 (stereo not drawn)"
targetentity = "Sialic acid-binding Ig-like lectin 9 (Homo sapiens) (UniProt Q9Y336)"
observedmeasurement = -2.48

[[record]]
compound = "O=C(CCn1cccn1)N1C[C@@H]2CC[C@H](C1)N(Cc1ccccn1)C2=O"
targetentity = "Sialic acid-binding Ig-like lectin 9 (Homo sapiens) (UniProt Q9Y336)"
observedmeasurement = 4.2

[[record]]
compound = "c1cnnc(N2CCCC(NCc3ccc(-n4ccnc4)cc3)C2)c1 (stereo not drawn)"
targetentity = "Sialic acid-binding Ig-like lectin 9 (Homo sapiens) (UniProt Q9Y336)"
observedmeasurement = 12

[[record]]
compound = "Cc1nc(NC(=O)CN2CCc3c(nc(C(C)C)n3C)C2)sc1C"
targetentity = "Sialic acid-binding Ig-like lectin 9 (Homo sapiens) (UniProt Q9Y336)"
observedmeasurement = 11

[[record]]
compound = "CNC(=O)CCCNCc1c(C)nn(C)c1N(C)C"
targetentity = "Sialic acid-binding Ig-like lectin 9 (Homo sapiens) (UniProt Q9Y336)"
observedmeasurement = 14.5

[[record]]
compound = "CCC(CC)C(O)CNC(=O)Nc1cc(C)nn1C (stereo not drawn)"
targetentity = "Sialic acid-binding Ig-like lectin 9 (Homo sapiens) (UniProt Q9Y336)"
observedmeasurement = 6.21

[[record]]
compound = "O=C(c1ccc2c(c1)OCO2)N1CCCSCC1CN1CCCC1 (stereo not drawn)"
targetentity = "Sialic acid-binding Ig-like lectin 9 (Homo sapiens) (UniProt Q9Y336)"
observedmeasurement = 7.89

[[record]]
compound = "Cc1cc(CN(C)C(=O)NCC(C)N2CCc3ccccc32)no1 (stereo not drawn)"
targetentity = "Sialic acid-binding Ig-like lectin 9 (Homo sapiens) (UniProt Q9Y336)"
observedmeasurement = 14.4

[[record]]
compound = "O=C(NCCCn1ccnc1)N1CCCC1c1ccncc1 (stereo not drawn)"
targetentity = "Sialic acid-binding Ig-like lectin 9 (Homo sapiens) (UniProt Q9Y336)"
observedmeasurement = -2.62

[[record]]
compound = "CCC(NC(=O)C1CCN(S(=O)(=O)N(C)C)CC1)c1ccc(C)c(C)c1 (stereo not drawn)"
targetentity = "Sialic acid-binding Ig-like lectin 9 (Homo sapiens) (UniProt Q9Y336)"
observedmeasurement = 1.28

[[record]]
compound = "O=C(c1ccco1)N1C[C@H]2CCCN(CC3CCOCC3)[C@H]2C1"
targetentity = "Sialic acid-binding Ig-like lectin 9 (Homo sapiens) (UniProt Q9Y336)"
observedmeasurement = -2.43

[[record]]
compound = "CC(C)CC(CNC(=O)NCc1cc[nH]n1)N1CCOCC1 (stereo not drawn)"
targetentity = "Sialic acid-binding Ig-like lectin 9 (Homo sapiens) (UniProt Q9Y336)"
observedmeasurement = -27

[[record]]
compound = "COCCN(C)C[C@@H]1CCC[C@@H]2CN(c3cc(OC)ncn3)C[C@@H]21"
targetentity = "Sialic acid-binding Ig-like lectin 9 (Homo sapiens) (UniProt Q9Y336)"
observedmeasurement = -3.68

[[record]]
compound = "O=C(Nc1ccccc1)c1nn(C2CCS(=O)(=O)C2)c2c1CCCC2 (stereo not drawn)"
targetentity = "Sialic acid-binding Ig-like lectin 9 (Homo sapiens) (UniProt Q9Y336)"
observedmeasurement = 0.438

[[record]]
compound = "Cn1cc(C[C@H]2[C@H](N3CCOCC3)CCN2C(=O)c2ccco2)cn1"
targetentity = "Sialic acid-binding Ig-like lectin 9 (Homo sapiens) (UniProt Q9Y336)"
observedmeasurement = -0.822

[[record]]
compound = "CCc1[nH]ncc1C(=O)N1CCCN(Cc2cnn(C(C)C)c2)CC1"
targetentity = "Sialic acid-binding Ig-like lectin 9 (Homo sapiens) (UniProt Q9Y336)"
observedmeasurement = -5.54

[[record]]
compound = "COc1cccc(-c2nc(CNCCn3cccn3)cs2)c1"
targetentity = "Sialic acid-binding Ig-like lectin 9 (Homo sapiens) (UniProt Q9Y336)"
observedmeasurement = -1.83

[[record]]
compound = "CC(C)(C)c1nnc(CN2CCOC(Cn3cccn3)C2)o1 (stereo not drawn)"
targetentity = "Sialic acid-binding Ig-like lectin 9 (Homo sapiens) (UniProt Q9Y336)"
observedmeasurement = 9.59

[[record]]
compound = "O=C(c1ccc[nH]1)N1CCC(c2nccn2Cc2ccncc2)CC1"
targetentity = "Sialic acid-binding Ig-like lectin 9 (Homo sapiens) (UniProt Q9Y336)"
observedmeasurement = 5.74

[[record]]
compound = "O=C(NCCNc1ncccn1)Nc1cc(C(F)(F)F)c[nH]c1=O"
targetentity = "Sialic acid-binding Ig-like lectin 9 (Homo sapiens) (UniProt Q9Y336)"
observedmeasurement = 1.17

[[record]]
compound = "Cc1nc(C)n(CC2CCCN2Cc2cn(-c3ccccc3)nn2)n1 (stereo not drawn)"
targetentity = "Sialic acid-binding Ig-like lectin 9 (Homo sapiens) (UniProt Q9Y336)"
observedmeasurement = 1.09

